MIC50 values for the compounds below.
Test system: CaCl2
Test: Antifungal sensitivity testing (broth microdilution MIC)
Type: cell-based
Settings: Table 4; 96-well broth microdilution
quantity-name: MIC50 (µM)

• Nc1nc2sc(CNC3CCN(CC(O)(Cn4cncn4)c4ccc(F)cc4F)CC3)cc2n(-c2ccc3c(c2)N(c2ccccc2)CCO3)c1=O (stereo not drawn) [Compound I-47] = 1
• Cc1ccc(-n2c(=O)c(N)nc3sc(C(=O)NC4CCN(CC(O)(Cn5cncn5)c5ccc(F)cc5F)CC4)cc32)cc1Oc1ccccc1 (stereo not drawn) [Compound I-12] = 0.18
• Nc1nc2sc(CNC3CCN(C[C@](O)(Cn4cncn4)c4ccc(F)cc4F)CC3)cc2n(-c2ccc3c(c2)N(c2ccccc2)CCO3)c1=O [Compound I-63] = 9
• Nc1nc2sc(CN[C@H]3[C@@H]4CN(C[C@@](O)(Cn5cncn5)c5ccc(F)cc5F)C[C@@H]43)cc2n(-c2ccc3c(c2)N(c2ccccc2)CCO3)c1=O [Compound I-127] = 6.25
• Nc1nc2sc(CNC3CCN(CC[C@@](O)(Cn4cncn4)c4ccc(F)cc4F)CC3)cc2n(-c2ccc3c(c2)N(c2ccccc2)CCO3)c1=O [Compound I-133] = 2.13
• Nc1nc2sc(C(=O)NC3CCN(C[C@](O)(Cn4cncn4)c4ccc(F)cc4F)CC3)cc2n(-c2ccc3ccn(-c4ccccc4)c3c2)c1=O [Compound I-23] = 0.35
